Where do these numbers come from? They come from the NIST ThermoML archive (doi:10.1021/je400140n).

- ASSAY_TEXT: molar heat capacity at constant pressure
- ASSAY_CONTEXT: 348.2 K; 101.33 kPa; Liquid; Small sample (50 mg) DSC
± gives the expanded uncertainty stated by the source.
READOUT: molar heat capacity at constant pressure
Please state the number and follow it with the unit.

Take a look at these entries with their results.
{"MOLECULE": "CCn1cc[n+](C)c1.N#C[C-](C#N)C#N [1-ethyl-3-methyl-1H-imidazolium tricyanomethanide]", "molar heat capacity at constant pressure": "384.35 ± 62 J/K/mol"}
{"MOLECULE": "O=S1(=O)CCCC1 [sulfolane]", "molar heat capacity at constant pressure": "198.52 ± 32 J/K/mol"}
{"MOLECULE": "CCn1cc[n+](C)c1.N#C[S-] [1-ethyl-3-methylimidazolium thiocyanate]", "molar heat capacity at constant pressure": "305.49 ± 49 J/K/mol"}
{"MOLECULE": "CCn1cc[n+](C)c1.N#CN=C=[N-] [1-ethyl-3-methylimidazolium dicyanamide]", "molar heat capacity at constant pressure": "354.41 ± 57 J/K/mol"}
{"MOLECULE": "CCCCn1cc[n+](C)c1.N#C[S-] [1-butyl-3-methylimidazolium thiocyanate]", "molar heat capacity at constant pressure": "341.13 ± 55 J/K/mol"}

Asked: Look up and state reported molar heat capacity at constant pressure for CCCCn1cc[n+](C)c1.N#CN=C=[N-] [1-butyl-3-methylimidazolium dicyanamide]
Given back: 386.71 ± 62 J/K/mol

----------
Recorded molar heat capacity at constant pressure values for a group of compounds are listed next.
- ASSAY_TEXT: molar heat capacity at constant pressure
- ASSAY_CONTEXT: 344.2 K; 101.33 kPa; Liquid; Small sample (50 mg) DSC
± gives the expanded uncertainty stated by the source.

{"COMPOUND": "O=S1(=O)CCCC1", "molar heat capacity at constant pressure": "196.36 ± 31 J/K/mol"}

Asked: Look up and state reported molar heat capacity at constant pressure for CCCCn1cc[n+](C)c1.N#C[S-] [1-butyl-3-methylimidazolium thiocyanate]
Given back: 338.57 ± 54 J/K/mol

Asked: Look up and state reported molar heat capacity at constant pressure for CCn1cc[n+](C)c1.N#CN=C=[N-] [1-ethyl-3-methylimidazolium dicyanamide]
Given back: 351.22 ± 56 J/K/mol

----------
- ASSAY_TEXT: molar heat capacity at constant pressure
- ASSAY_CONTEXT: 364.2 K; 101.33 kPa; Liquid; Small sample (50 mg) DSC
READOUT: molar heat capacity at constant pressure (J/K/mol)
Please give a number only; it is taken to be in J/K/mol.

Take a look at these entries with their results.
{"MOLECULE": "CCn1cc[n+](C)c1.N#CN=C=[N-] [1-ethyl-3-methylimidazolium dicyanamide]", "molar heat capacity at constant pressure / J/K/mol": 368.59}
{"MOLECULE": "CCCCn1cc[n+](C)c1.N#CN=C=[N-] [1-butyl-3-methylimidazolium dicyanamide]", "molar heat capacity at constant pressure / J/K/mol": 403.34}
{"MOLECULE": "CCn1cc[n+](C)c1.N#C[S-] [1-ethyl-3-methylimidazolium thiocyanate]", "molar heat capacity at constant pressure / J/K/mol": 317.17}
{"MOLECULE": "CCn1cc[n+](C)c1.N#C[C-](C#N)C#N [1-ethyl-3-methyl-1H-imidazolium tricyanomethanide]", "molar heat capacity at constant pressure / J/K/mol": 396.22}
{"MOLECULE": "CCCCn1cc[n+](C)c1.N#C[S-] [1-butyl-3-methylimidazolium thiocyanate]", "molar heat capacity at constant pressure / J/K/mol": 353.37}

Alright, here's another molecule for you.
Asked: Look up and state reported molar heat capacity at constant pressure for O=S1(=O)CCCC1 [sulfolane]
Given back: 208.26
